# assay_explanation: yeast display, Sf9 membrane polyspecificity reagent, FACS + sequencing; frameworks hold sequencing errors
measurement_label: polyreactivity (PSR sort gate)

Worked set:
1. QDQLVESGGGLVQAGGSLRLSCADSGSNFKYNAMGWYRPAPGKERELVAAISTRGSTTNYADSVKGRFTISRDNAKNTVYLQMNSLKPEDTAVYDCNKYANRRDRTRGADYDYWGQGTQVTVSS    high polyreactivity
2. QVQLVESVGGLVQAGGSLRLSCAASGFIFKGNAMGWYRQAPGKERELVAAITNRGGGTYYADSVKGRFTISRDNAKNTVYLQMNSLKPEDTAVYYCAKAYTRPFHPYDYWGQGTQVTVSS    high polyreactivity
3. QVQLVESGGGLVQSGGSLRLSCAASGSTFGFYAMGGYRQAPGKERELVAAISRGGSTNYADSVKGRFTISRDNAKNTVSCQMNSLKPEDTAVYYCAKAYHATSYYWGQGTQVTVSS    low polyreactivity
4. QVQLVESGGGLVQAGGSLRLSCAASGSIFYYNTMGRYRQAPGKERELVAAIRFDDGSTYYADSVKGRFTISRDNAKNTVYLQMNSLKPEDTAVYYCAADWIVVSEFGLDYHMDYWGQGTQVTVSS    low polyreactivity

Batch lookup, polyreactivity (PSR sort gate) per entry.
1. QVQLVESGGGLVQAGGSHRLSCAASGSTFKDYAMVWYRQAPGKERELVASITESGGSTYYADSVKGRFTISRDNAKNTVYLQMNSLNPEDTAVYYCATDLIPEGSGYDYWGQGTQVTVSS
2. QVQLQERGGGLVQAGGSLRLSCAASRIIYADGFMGLYRQAPGKEREFVATITGGGTSNYADSVKGLFTISRDNAKNTVYLQMNSQKPEDTAVYYCAVYFAWTIGFTYWGQGTQVTVSS
3. QVQLVESAGGLVQAGGSLRLSCAASGRTFKYYAMGWYRQAPGKERELVAAISRSGGSTYADSVKGRFTISRDNAKNTVYLQMNSLKPDETAVYYCAAYSGVGYLWFDYWGQGTQVTVSS
4. QVQLVESGGGLVQAGGSLRLSCAASGRIFTAYYAMGWYRQAPGKERELVASISSSGTSTYADSVKGRFTISRDNAKNTVYLQMNSLKPEDTAVYYCATRKLRTRRYDYGYWGQGTQVNVSS
5. QVQLVESGGGLVQAGGSLRLSCAASGFTFGSYAMGWYRQAPGKERELVAAISSRGGSTYYADSVKGRFTISRDNAKNTVYLQMNSLKPEDTAVYYCNAGYGYIKQYPDYQSKYDYWGQGTQVTVSS
6. QVQLVESGGGLVQAGGSLRLSCAASGRTFYVNAMGWYRQAPGKERELVAAINTIGGRTYYADSVKGRFTISRDNAKNTVYLQMNSLKTEDTAVYYCAARQVSRWGYDYWGQGTQVTVSS

Found:
low polyreactivity
high polyreactivity
low polyreactivity
low polyreactivity
low polyreactivity
high polyreactivity

Lookup: Entry QVQLQECGGGLVQAGGSLRLSCAASGNIFDADIMGWYRQAPGKERELVASVSDGGSTNYADSVKGRFTISRDNAKNTVYLQMNSLKPEDTAVYYCAAIVYPDILTYFDYDYDYFYWGQGTQVTVGS : reported polyreactivity (PSR sort gate) = ?
Found: low polyreactivity
